# System: Vero E6 infected with SARS-CoV-2
# ASSAY EXPLANATION: SARS-CoV-2 infection rate relative to infected DMSO; higher = more infection, active = 60 or less
# CONDITION SET: 24 h
Choose one outcome from this list and give only that: t (active), f (inactive)

Previously resolved entries follow.
O=C(NCCN1CCC2(CC1)C(=O)NCN2c1cccc(F)c1)c1ccc2ccccc2c1 (10 µM) = t
C=CC[C@]1(O)CC[C@H]2[C@@H]3CCC4=CCCC[C@@H]4[C@H]3CC[C@@]21C [allylestrenol] (10 µM) = f
CCOc1c(N2CCOCC2)cnn(C)c1=O [emorfazone] (10 µM) = f
c1cc2c(cc1C1CCCCC1)c1c3n2CCNC3CCC1 (stereo unspecified) [tetrindole] (0.833333 µM) = f
C[C@@H]1C(=O)O[C@H]2C[C@@]34[C@H]5C[C@@H](C(C)(C)C)[C@]36[C@@H](OC(=O)[C@@H]6O)O[C@@]4(C(=O)O5)[C@]21O [Ginkgolide A] (10 µM) = f
CCOc1ccn(-c2ccc(F)cc2)c(=O)c1C(=O)Nc1ccc(Oc2ccnc(N)c2Cl)c(F)c1 (10 µM) = f
COC1=C[C@@H]2[C@@H]3Cc4ccc(OC)c(O)c4[C@]2(CCN3C)CC1=O [sinomenine] (10 µM) = f
CCCCC(CC)CCC(CC(C)C)OS(=O)(=O)O (stereo unspecified) [sodium-tetradecyl-sulfate] (10 µM) = f

[ask] Please let me know the test result on file for NS(=O)(=O)c1cc(-c2nnn[nH]2)c(NCc2cccs2)cc1Cl [azosemide] (10 µM) .
[reply] f

[ask] Please let me know the test result on file for CC[C@H]1CN2CCc3cc(OC)c(OC)cc3[C@@H]2C[C@@H]1C[C@H]1NCCc2cc(OC)c(OC)cc21 [emetine] (0.833333 µM) .
[reply] f

[ask] Please let me know the test result on file for CCCCCCCC/C=C\CCCCCCCC(=O)NCCO [oleoylethanolamide] (10 µM) .
[reply] f

[ask] Please let me know the test result on file for O=P1(NCCCl)OCCCN1CCCl (stereo unspecified) [ifosfamide] (10 µM) .
[reply] f

[ask] Please let me know the test result on file for C=CCNc1c(O)cc2c(O)c1C[C@@H](C)C[C@H](OC)[C@H](O)[C@@H](C)/C=C(\C)[C@H](OC(N)=O)[C@@H](OC)/C=C\C=C(/C)C(=O)N2 [retaspimycin] (10 µM) .
[reply] f

[ask] Please let me know the test result on file for COc1ccc(OC)c(CN(C(C)=O)c2cc(F)ccc2Oc2ccccc2)c1 (10 µM) .
[reply] f

[ask] Please let me know the test result on file for C(=C\c1ccccc1)/CN1CCN(CCOC(c2ccccc2)c2ccccc2)CC1 (10 µM) .
[reply] f

[ask] Please let me know the test result on file for CC(C)[C@H](C(=O)Nc1ccc(C(=O)NO)cc1)c1ccccc1 (10 µM) .
[reply] f

* * *

# Tested on: Vero E6 infected with SARS-CoV-2
# ASSAY EXPLANATION: morphology score (similarity to uninfected cells); higher = more like uninfected cells
# CONDITION SET: 24 h
MEASURE: morphology score
Enter the number alone.

O[C@@H]1[C@H](O)[C@@H](CCl)O[C@H]1n1cnc2c(NC3CC4CCC3C4)ncnc21 (mixture of isomers) [5'-chloro-5'-deoxy-ENBA-(+/-)] (10 µM) = 0.0934
S=C=Nc1ccc(N=C=S)cc1 [bitoscanate] (10 µM) = -0.0255
Cn1ncnc1[C@H]1c2n[nH]c(=O)c3cc(F)cc(c23)N[C@@H]1c1ccc(F)cc1 [talazoparib] (0.833333 µM) = -0.223

Now turn to the next compound.
[ask] # return recorded morphology score for entry CN(Cc1ccccc1)C(=O)[C@H](Cc1ccc2ccccc2c1)NC(=O)[C@@H]1CCCN1C(=O)Nc1ccccc1[N+](=O)[O-] (10 µM)
[reply] 0.00351

* * *

Examples of compounds with documented inhibition of SARS-CoV-2 cytopathic effect follow.
# Test system: Vero E6 infected with SARS-CoV-2
# ASSAY EXPLANATION: inhibition of SARS-CoV-2 cytopathic effect; higher = more antiviral protection, active = above 15
# CONDITION SET: 833.33 nM; 48 h
# value in %; strip the unit string

// below: answered compounds
C[C@@H]1C[C@H]2[C@@H]3CCC4=CC(=O)C=C[C@]4(C)[C@@]3(F)[C@@H](O)C[C@]2(C)[C@@]1(O)C(=O)COP(=O)(O)O = -3.81
C[S+](C)CC[C@H](N)C(=O)O = 0.92
CO/N=C(\C(=O)N[C@@H]1C(=O)N2C(C(=O)O)=C(CSc3nc(C)c(CC(=O)O)s3)CS[C@H]12)c1csc(N)n1 = -0.21
CO[C@H]1CC=C2CCN3CCC4=C(CC(=O)OC4)[C@]23C1 = 0.73
CCOC1O[C@H]([C@@H](COCc2ccccc2)OCc2ccccc2)[C@H](OCc2ccccc2)[C@H]1O (some centres undefined) [tribenoside] = 0.08
COc1ccc(S(=O)(=O)N2CCCN(S(=O)(=O)c3ccc(OC)c(OC)c3)CC2)cc1OC = -5.53
CN1CCc2c(c3ccccc3n2Cc2ccccc2)C1 [mebhydrolin] = -0.47
CC(C)(Oc1ccc(C(=O)c2ccc(Cl)cc2)cc1)C(=O)O = 1.29
CCCC(=O)Nc1ccc(OCC(O)CNC(C)C)c(C(C)=O)c1 (centres undefined) = -2.09
CCN(CC)CCOC(=O)c1cc(Cl)c(N)cc1OC = -0.08

[ask] # return recorded inhibition of SARS-CoV-2 cytopathic effect for entry COc1ccc(/C=C/CCCCOc2ccc(C(=O)c3cccc(C(=O)O)c3)cc2CCC(=O)O)cc1
[reply] -3.65

[ask] # return recorded inhibition of SARS-CoV-2 cytopathic effect for entry Fc1ccc(C(OCCN2CCN(C/C=C/c3ccccc3)CC2)c2ccc(F)cc2)cc1
[reply] 1.4

[ask] # return recorded inhibition of SARS-CoV-2 cytopathic effect for entry [NH-]c1c[n+](N2CCOCC2)no1
[reply] -0.32

[ask] # return recorded inhibition of SARS-CoV-2 cytopathic effect for entry CC(C)OC(=O)[C@H](C)N[P@](=O)(CO[C@H](C)Cn1cnc2c(N)ncnc21)Oc1ccccc1 [tenofovir-alafenamide]
[reply] -2.51

* * *

# System: Vero E6 infected with SARS-CoV-2
# ASSAY EXPLANATION: inhibition of SARS-CoV-2 cytopathic effect; higher = more antiviral protection, active = above 15
# CONDITION SET: 1 nM; 48 h
Examples of compounds with documented inhibition of SARS-CoV-2 cytopathic effect follow.
# value in %; strip the unit string

// below: answered compounds
C[C@H](Cn1cnc2c(N)ncnc21)OCP(=O)(O)O [tenofovir] = -0.47
CN[C@@H]1[C@@H](O)[C@@H](O[C@@H]2[C@@H](O)[C@H](O[C@H]3O[C@H](CN)[C@@H](O)[C@H](O)[C@H]3O)[C@@H](N)C[C@H]2NC(=O)[C@@H](O)CN)OC[C@]1(C)O [isepamicin] = -2.06
O=C(O)C1=CCNCC1 [isoguvacine] = 0.65
Cc1oc(=O)oc1CN1CCN(c2cc3c(cc2F)c(=O)c(C(=O)O)c2n3C(C)S2)CC1 (configuration not stated) [prulifloxacin] = 0.31
O=C(O)c1c(Cl)c(Cl)c(Cl)c(Cl)c1-c1c2cc(I)c(=O)c(I)c-2oc2c(I)c(O)c(I)cc12 [rose-bengal] = -2.56
O=C(O)c1cc(-c2ccccc2)nc2ccccc12 [cinchophen] = -0.85

Now turn to the next compound.
[ask] # return recorded inhibition of SARS-CoV-2 cytopathic effect for entry CCNC(=O)[C@@H]1CCCN1C(=O)[C@H](CCCNC(=N)N)NC(=O)[C@H](CC(C)C)NC(=O)[C@@H](CC(C)C)NC(=O)[C@H](Cc1ccc(O)cc1)NC(=O)[C@H](CO)NC(=O)[C@H](Cc1c[nH]c2ccccc12)NC(=O)[C@H](Cc1c[nH]cn1)NC(=O)[C@@H]1CCC(=O)N1 [leuprolide]
[reply] -3.75

* * *

# Test system: Vero E6 infected with SARS-CoV-2
# ASSAY EXPLANATION: inhibition of SARS-CoV-2 cytopathic effect; higher = more antiviral protection, active = above 15
# CONDITION SET: 8.33 nM; 48 h
MEASURE: inhibition of SARS-CoV-2 cytopathic effect (%)
# value in %; strip the unit string

// below: answered compounds
Cc1[nH]c2ccc(F)cc2c1-c1nc2c3cccnc3c3ncccc3c2[nH]1 = 1.01
O=C(Nc1c[nH]nc1-c1nc2ccc(CN3CCOCC3)cc2[nH]1)NC1CC1 = -0.1
C[C@H](N)C(=O)N[C@@]1(C(=O)O)C[C@@H](Sc2nnc[nH]2)[C@H]2[C@H](C(=O)O)[C@H]21 = -4.35
NC(=O)c1noc([C@H](CCCC2CCCCC2)CC(=O)NO)n1 = -2.89
CC(=O)Oc1cc(C(F)(F)F)ccc1C(=O)O [triflusal] = -0.53

[ask] # return recorded inhibition of SARS-CoV-2 cytopathic effect for entry Cc1cc(-c2nncc3c(C(C)(C)C)c(OCc4ncnn4C)nn23)no1
[reply] -1.07

[ask] # return recorded inhibition of SARS-CoV-2 cytopathic effect for entry CO[C@@H]1[C@H](O)[C@@H](CO)O[C@H]1n1cnc2c(NC3CCCCC3)ncnc21
[reply] 1.94

[ask] # return recorded inhibition of SARS-CoV-2 cytopathic effect for entry O=C(O)c1cc(O)c2c(Cl)cc(Cl)cc2n1 [5,7-dichlorokynurenic-acid]
[reply] -2.54

[ask] # return recorded inhibition of SARS-CoV-2 cytopathic effect for entry CC[C@H]1OC(=O)C[C@@H](O)[C@H](C)[C@@H](O[C@@H]2O[C@H](C)C[C@H](N(C)C)[C@H]2O)[C@@H](CC=O)C[C@@H](C)C(=O)/C=C/[C@]2(C)O[C@H]2[C@@H]1C [rosamicin]
[reply] 0.4

[ask] # return recorded inhibition of SARS-CoV-2 cytopathic effect for entry Cc1ccc(S(=O)(=O)Cc2nc(-c3ccc(C(=O)NCc4cccnc4)cc3)oc2C)cc1
[reply] -2.16

All figures here come from the supplement of paper PMC13380429.
